# Tested on: U251 CNS
# assay_method_text: NCI-60 one-dose screen, 48 h
# test_context: 10 µM unless noted
Compounds without any hit were thinned out: in the full panel of roughly 83,000, 20% have a hit. Activity calls are given as the source filed them. Rule for the calls: active = growth percent below 10; inactive = the rest.
Bench note: report the call from active, inactive

Examples from the recorded data:
Q. What did the test return for COc1nc2c(c(=O)n1C)CN(c1ccccc1)C(=O)CN2C ?
A. inactive

Q. Please give the result for COc1ccc(-c2nc3sccn3c2-c2cc(-c3cc(OC)c(OC)c(OC)c3)on2)cc1 too.
A. inactive

Q. Param item: O=C(/C=C/c1c(Cl)nc2sccn12)c1nccs1
A. inactive

***
Q. Which result was noted for this compound in the test: NCCCNc1nc2ccccc2c2c(=O)c3cccc(Cl)c3sc12
A. active

Q. What do you get for COc1ccc(C(=O)COc2ccc(/C=C3\Oc4ccccc4C3=O)cc2)cc1 ?
A. inactive

Q. Another compound: CCN(CC)CCn1nc2c3c(cccc3c1=O)-c1ccccc1-2
A. active

Q. Same question, CCCCCCCCCCCCCCCCCC1=NCCN1CCOC1=C(Cl)C(=O)c2ccccc2C1=O this time
A. inactive

Q. One more compound: C=C(C)[C@@H]1CC[C@]2(C)[C@H](CC=C3[C@@H]4CC(C)(C)CC[C@]4(C(N)=O)CC[C@]32C)[C@@]1(C)CCC#N
A. inactive

Q. And the next one, COc1ccc2nc(NNC(=O)c3cnccn3)c3cccn3c2c1 ?
A. active

Q. What about CC(=O)OC1CCC2(C)C(=CC3C4CCC(=O)C4(C)CCC32)C1 (stereo not drawn) ?
A. inactive
